B1: minF1; a variant is named by its letters at N, in order (parent)
chain: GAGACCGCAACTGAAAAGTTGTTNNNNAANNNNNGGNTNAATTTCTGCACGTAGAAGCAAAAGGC

Variants of: B1
Test: fraction ligated after 30 min (ligated reads / total reads); higher = more ligase activity
Settings: with F1*subA RNA substrate (template-directed ligation), 42 °C
Threshold rule: fraction ligated greater than or equal to 0.003 is class 1; below that, class 0.

{"Variant description": "ATCATGGATTG A28G", "Category": "class 1"}
{"Variant description": "ACGATGATGTG", "Category": "class 0"}
{"Variant description": "TCAGATGGAGT G35T T38G A40T A41G", "Category": "class 0"}
{"Variant description": "ATAGAGGATTG", "Category": "class 0"}
{"Variant description": "AGAAGGATGTG A29T", "Category": "class 1"}

Note: attention shifts to another entry.
**Q:** Reported fraction ligated reaches at least 0.003 for ATCAAGGATGT A28G ?
**A:** class 1
